B1: SPOPL (parent)
chain: PDDKLTLFCEVSVVQDSVNISGHT

Variants of: B1
Experiment: protein stability index of a GFP-peptide fusion (GPS, HEK-293T) (PSI 1-6); higher = more stable;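 note: lentivirally expressed fusions sorted by FACS into six bins by GFP to DsRed ratio, PSI derived from sequencing read proportions per bin multiplied by bin number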
Details: c terminus: a fixed tail appended
This listing pairs variants with measured protein stability index.
readout-type: protein stability index

D16S: 2.32
E10M: 3.02
P1R: 2.1
N19P: 2.29
I20G: 3.21
F8P: 4.79
D2F: 1.5
V11R: 3.67
D2T: 1.38
I20T: 3.2
L5N: 3.95
D3T: 1.51
G22N: 1.98
S17C: 2.61
I20E: 3.42
D2W: 3.07
D3H: 1.47
F8K: 3.48
L5A: 3.66
F8M: 2.86
S12A: 3.08
D3Y: 1.97
